Entry source: paper PMC10981727

Known melting point of a selection of compounds

[
  {
    "compound": "N#CC1=C(N)Oc2ccc3ccc(O)cc3c2C1c1ccncc1 (stereo not shown) [4l]",
    "endpointName": "melting point",
    "assayResult": "294 to 295 °C"
  },
  {
    "compound": "N#CC1=C(N)Oc2ccc3ccc(O)cc3c2C1c1cccnc1 (stereo not shown) [4k]",
    "endpointName": "melting point",
    "assayResult": "296 to 297 °C"
  },
  {
    "compound": "COc1ccc(C2C(C#N)=C(N)Oc3ccc4ccc(O)cc4c32)cc1 (stereo not shown) [4g]",
    "endpointName": "melting point",
    "assayResult": "229 to 230 °C"
  },
  {
    "compound": "N#CC1=C(N)Oc2ccc3ccc(O)cc3c2C1c1ccc(Cl)cc1 (stereo not shown) [4d]",
    "endpointName": "melting point",
    "assayResult": "285 to 286 °C"
  },
  {
    "compound": "N#CC1=C(N)Oc2ccc3ccc(O)cc3c2C1c1ccccc1Cl (stereo not shown) [4b]",
    "endpointName": "melting point",
    "assayResult": "262 to 263 °C"
  },
  {
    "compound": "Cc1ccc(C2C(C#N)=C(N)Oc3ccc4ccc(O)cc4c32)cc1 (stereo not shown) [4f]",
    "endpointName": "melting point",
    "assayResult": "258 to 259 °C"
  }
]

// melting point value for N#CC1=C(N)Oc2ccc3ccc(O)cc3c2C1c1ccc(Br)cc1 (stereo not shown) [4e] : 285 to 286 °C

###

Let's look at some compounds and their measured times more potency than Doxorubicin, SKOV-3.
Tested on: SKOV-3
assayMethodText: MTT viability assay, SKOV-3
Assay type: cell-based
testConditions: ratio of IC50 values, SKOV-3
Procedure: Using concentrations ranging from 0 to 100 μM against PC-3, SKOV-3, and HeLa cancerogenic cell lines, target compounds 4a–l were assessed for their anticancer activities[53] and compared with the commercially available Vinblastine and Doxorubicin. […] We selected the cytotoxic active compounds 4a–c, 4g, and 4h to be evaluated against MCF-7/ADR cancerogenic and HFL-1 and WI-38 non-cancerogenic cell lines (Figs. 7, 8 and Table 1). […]
Quick note: give the figure in times, leave out the unit.

Consider the worked cases shown below.
[
  {
    "compound": "N#CC1=C(N)Oc2ccc3ccc(O)cc3c2C1c1ccc([N+](=O)[O-])cc1 (centres unmarked)",
    "systemTested": "SKOV-3",
    "outputUnit": "times",
    "assayResult": 1.8
  },
  {
    "compound": "N#CC1=C(N)Oc2ccc3ccc(O)cc3c2C1c1ccc(F)cc1 (centres unmarked)",
    "systemTested": "SKOV-3",
    "outputUnit": "times",
    "assayResult": 1.8
  },
  {
    "compound": "COc1ccc(C2C(C#N)=C(N)Oc3ccc4ccc(O)cc4c32)cc1 (centres unmarked)",
    "systemTested": "SKOV-3",
    "outputUnit": "times",
    "assayResult": 1.6
  },
  {
    "compound": "N#CC1=C(N)Oc2ccc3ccc(O)cc3c2C1c1cccc(Cl)c1 (centres unmarked)",
    "systemTested": "SKOV-3",
    "outputUnit": "times",
    "assayResult": 1.4
  }
]

Let us examine a further case.
Summary for this compound, N#CC1=C(N)Oc2ccc3ccc(O)cc3c2C1c1ccccc1Cl (centres unmarked) : times more potency than Doxorubicin, SKOV-3 is 1.6
